Molecular target: T1, ALDOA 1-364 Glycolytic (domain begin residue: 1, domain end residue: 364), P04075
T1 chain: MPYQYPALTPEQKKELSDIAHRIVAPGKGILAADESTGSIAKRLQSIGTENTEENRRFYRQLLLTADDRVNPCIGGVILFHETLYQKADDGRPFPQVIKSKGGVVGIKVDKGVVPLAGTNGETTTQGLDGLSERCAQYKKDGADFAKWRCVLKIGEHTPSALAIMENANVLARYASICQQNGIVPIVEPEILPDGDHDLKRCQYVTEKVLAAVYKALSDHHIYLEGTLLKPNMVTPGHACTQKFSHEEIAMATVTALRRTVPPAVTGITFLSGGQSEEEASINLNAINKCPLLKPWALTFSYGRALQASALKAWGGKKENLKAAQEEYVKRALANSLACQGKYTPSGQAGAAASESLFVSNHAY
Test: phage ELISA signal ratio (GST-PRM binding over GST background); higher = stronger binding of peptide-phage to the PRM
Readout name: phage ELISA signal ratio

{"Binder": "EFLWDPVQEMHVMVNE", "Measured": 5.28}
{"Binder": "WVYENGEWEWTFPPSA", "Measured": 17.8}
{"Binder": "MYDEWHMPDSYEVVVQ", "Measured": 19.3}
{"Binder": "VQWQERYTDYTFENVT", "Measured": 24.7}
